Recorded Cmax, one value per entry.
# ASSAY COMMENT: pharmacokinetics of 16 ginsenosides in rat plasma after oral administration of RGS
# Type: in vivo
# EXPERIMENTAL CONTEXT: SD, rat, plasma, po, 100 mg/kg, model (scopolamine 1 mg/kg i.p.-treated) rats, oral RGS single dose 100 mg/kg, plasma, mean ± S.D., n = 5; read-out: C Max
REPORTED METRIC: Cmax (ng/g)

# COMPOUND, RESULT
measured = [
    ("CC(C)=CCCC(C)(OC1OC(COC2OC(CO)C(O)C2O)C(O)C(O)C1O)C1CCC2(C)C1C(O)CC1C3(C)CCC(OC4OC(CO)C(O)C(O)C4OC4OC(CO)C(O)C(O)C4O)C(C)(C)C3CCC12C (stereo not drawn) [Rc]", 21),
    ("C=C(CCC=C(C)C)C1CCC2(C)C1C(O)CC1C3(C)CCC(OC4OC(CO)C(O)C(O)C4OC4OC(CO)C(O)C(O)C4O)C(C)(C)C3CCC12C (stereo not drawn) [Rk1]", 50.1),
    ("CC(C)=CCCC(C)(OC1OC(CO)C(O)C(O)C1O)C1CCC2(C)C1C(O)CC1C3(C)CCC(O)C(C)(C)C3C(OC3OC(CO)C(O)C(O)C3OC3OC(C)C(O)C(O)C3O)CC12C (stereo not drawn) [Re]", 24.9),
]

* * *

# ASSAY COMMENT: pharmacokinetics of 16 ginsenosides in rat plasma after oral administration of RGS
# Format: in vivo
# EXPERIMENTAL CONTEXT: SD, rat, in vivo, po, 100 mg/kg

# COMPOUND, C Max, ng/g
measured = [
    ("C=C(CCC=C(C)C)C1CCC2(C)C1C(O)CC1C3(C)CCC(O)C(C)(C)C3C(OC3OC(CO)C(O)C(O)C3O)CC12C (stereo not drawn) [Rk3]", 16.6),
    ("CC(C)=CCCC(C)(O)C1CCC2(C)C1C(O)CC1C3(C)CCC(O)C(C)(C)C3C(OC3OC(CO)C(O)C(O)C3OC3OC(CO)C(O)C(O)C3O)CC12C (stereo not drawn) [Rf]", 18.8),
    ("CC(C)=CCC=C(C)C1CCC2(C)C1C(O)CC1C3(C)CCC(O)C(C)(C)C3C(OC3OC(CO)C(O)C(O)C3O)CC12C (stereo not drawn) [Rh4]", 38.7),
    ("CC(C)=CCC=C(C)C1CCC2(C)C1C(O)CC1C3(C)CCC(OC4OC(CO)C(O)C(O)C4O)C(C)(C)C3CCC12C (stereo not drawn) [Rh3]", 37.6),
    ("CC(C)=CCC[C@](C)(O)[C@H]1CC[C@]2(C)[C@@H]1[C@H](O)C[C@@H]1[C@@]3(C)CC[C@H](O)C(C)(C)[C@@H]3[C@@H](O[C@@H]3O[C@H](CO)[C@@H](O)[C@H](O)[C@H]3O[C@@H]3O[C@@H](C)[C@H](O)[C@@H](O)[C@H]3O)C[C@]12C [Rg2, Ginsenoside Rg2]", 26.3),
    ("CC(C)=CCCC(C)(O)C1CCC2(C)C1C(O)CC1C3(C)CCC(OC4OC(CO)C(O)C(O)C4OC4OC(CO)C(O)C(O)C4O)C(C)(C)C3CCC12C (stereo not drawn) [Rg3]", 32.3),
]

* * *

half-life values for the compounds below.
# ASSAY COMMENT: pharmacokinetics of 16 ginsenosides in rat plasma after oral administration of RGS
# Format: in vivo
# EXPERIMENTAL CONTEXT: SD, rat, plasma, po, 100 mg/kg, model (scopolamine 1 mg/kg i.p.-treated) rats, oral RGS single dose 100 mg/kg, plasma, mean ± S.D., n = 5; read-out: T1/2 (converted)

# COMPOUND, MEASURE UNIT, half-life
rows = [
    ("CC(C)=CCCC(C)(OC1OC(CO)C(O)C(O)C1O)C1CCC2(C)C1C(O)CC1C3(C)CCC(OC4OC(CO)C(O)C(O)C4OC4OC(CO)C(O)C(O)C4O)C(C)(C)C3CCC12C (stereo not drawn)", "h", 6.2),
    ("CC(C)=CCCC(C)(OC1OC(CO)C(O)C(O)C1O)C1CCC2(C)C1C(O)CC1C3(C)CCC(O)C(C)(C)C3C(OC3OC(CO)C(O)C(O)C3O)CC12C (stereo not drawn)", "h", 10.2),
    ("C=C(CCC=C(C)C)C1CCC2(C)C1C(O)CC1C3(C)CCC(OC4OC(CO)C(O)C(O)C4OC4OC(CO)C(O)C(O)C4O)C(C)(C)C3CCC12C (stereo not drawn)", "h", 29.3),
]

* * *

# ASSAY COMMENT: pharmacokinetics of 16 ginsenosides in rat plasma after oral administration of RGS
# Type: in vivo
# EXPERIMENTAL CONTEXT: SD, rat, plasma, po, 100 mg/kg, model (scopolamine 1 mg/kg i.p.-treated) rats, oral RGS single dose 100 mg/kg, plasma, mean ± S.D., n = 5; read-out: MRT
# Procedure: The SD rats were randomly allocated into two groups, i.e., normal group and SA-treated group. Blood samples were collected from the postocular vein at 0.083, 0.25, 0.5, 1, 2, 3, 4, 6, 8, 12 and 24 h after SA injection. […] Based on a non-compartmental method, WinNonlin software (Phoenix, version 6.1) was employed to calculate the pharmacokinetic parameters. The statistical difference between groups was analyzed by One-Way ANOVA analysis using SPSS Version 17.0. […]

# COMPOUND, MRT, h
records = [
    ("CC(C)=CCCC(C)(OC1OC(CO)C(O)C(O)C1O)C1CCC2(C)C1C(O)CC1C3(C)CCC(O)C(C)(C)C3C(OC3OC(CO)C(O)C(O)C3OC3OC(C)C(O)C(O)C3O)CC12C (centres unmarked) [Re]", 8.6),
    ("CC(C)=CCCC(C)(OC1OC(CO)C(O)C(O)C1O)C1CCC2(C)C1C(O)CC1C3(C)CCC(OC4OC(CO)C(O)C(O)C4OC4OC(CO)C(O)C(O)C4O)C(C)(C)C3CCC12C (centres unmarked) [Rd]", 7.7),
    ("CC(C)=CCCC(C)(OC1OC(COC2OCC(O)C(O)C2O)C(O)C(O)C1O)C1CCC2(C)C1C(O)CC1C3(C)CCC(OC4OC(CO)C(O)C(O)C4OC4OC(CO)C(O)C(O)C4O)C(C)(C)C3CCC12C (centres unmarked) [Rb2]", 7.9),
    ("CC(C)=CCCC(C)(OC1OC(COC2OC(CO)C(O)C(O)C2O)C(O)C(O)C1O)C1CCC2(C)C1C(O)CC1C3(C)CCC(OC4OC(CO)C(O)C(O)C4OC4OC(CO)C(O)C(O)C4O)C(C)(C)C3CCC12C (centres unmarked) [Rb1]", 6.5),
    ("CC(C)=CCCC(C)(OC1OC(CO)C(O)C(O)C1O)C1CCC2(C)C1C(O)CC1C3(C)CCC(O)C(C)(C)C3C(OC3OC(CO)C(O)C(O)C3O)CC12C (centres unmarked) [Rg1]", 16.5),
]

* * *

# ASSAY COMMENT: pharmacokinetics of 16 ginsenosides in rat plasma after oral administration of RGS
# Format: in vivo
# EXPERIMENTAL CONTEXT: SD, rat, in vivo, po, 100 mg/kg, normal rats, oral RGS single dose 100 mg/kg, plasma, mean ± S.D., n = 5; read-out: MRT
REPORTED METRIC: MRT (h)

# MOLECULE, REPORTED METRIC, MEASURE UNIT, RESULT
records = [
    ("CC(C)=CCCC(C)(O)C1CCC2(C)C1C(O)CC1C3(C)CCC(O)C(C)(C)C3C(OC3OC(CO)C(O)C(O)C3O)CC12C (centres unmarked)", "MRT", "h", 9.6),
    ("CC(C)=CCCC(C)(O)C1CCC2(C)C1C(O)CC1C3(C)CCC(OC4OC(CO)C(O)C(O)C4O)C(C)(C)C3CCC12C (centres unmarked)", "MRT", "h", 12.3),
]

* * *

# ASSAY COMMENT: pharmacokinetics of 16 ginsenosides in rat plasma after oral administration of RGS
# Format: in vivo
# EXPERIMENTAL CONTEXT: SD, rat, plasma, po, 100 mg/kg, model (scopolamine 1 mg/kg i.p.-treated) rats, oral RGS single dose 100 mg/kg, plasma, mean ± S.D., n = 5; read-out: T Max
REPORTED METRIC: Tmax (h)

# COMPOUND, RESULT
measured = [
    ("CC(C)=CCCC(C)(OC1OC(CO)C(O)C(O)C1O)C1CCC2(C)C1C(O)CC1C3(C)CCC(OC4OC(CO)C(O)C(O)C4OC4OC(CO)C(O)C(O)C4O)C(C)(C)C3CCC12C (stereo not drawn)", 2),
    ("CC(C)=CCCC(C)(OC1OC(COC2OCC(O)C(O)C2O)C(O)C(O)C1O)C1CCC2(C)C1C(O)CC1C3(C)CCC(OC4OC(CO)C(O)C(O)C4OC4OC(CO)C(O)C(O)C4O)C(C)(C)C3CCC12C (stereo not drawn)", 1.5),
    ("CC(C)=CCCC(C)(OC1OC(CO)C(O)C(O)C1O)C1CCC2(C)C1C(O)CC1C3(C)CCC(O)C(C)(C)C3C(OC3OC(CO)C(O)C(O)C3OC3OC(C)C(O)C(O)C3O)CC12C (stereo not drawn)", 0.5),
]
